tested on: BT-549 breast; assay: NCI-60 one-dose screen, 48 h; settings: 10 µM unless noted
About 83,000 compounds went through this panel and 20% of them were active in at least one assay; those are over-represented in the sample as a whole. Calls of active or inactive are those of the source. Rule for the calls: active = growth percent below 10; inactive = the rest.
Choose the fitting class; nothing outside TRUE = active, FALSE = inactive is accepted.

Please review the entries below; each comes with its answer.
* N#CC1(C#N)C(c2cccs2)NC(c2cccs2)C1(C#N)C#N (configuration not stated) | FALSE
* C=CC(=O)Nc1cccc(Oc2nc(Nc3ccc(N4CCN(C)CC4)cc3)nc3ccsc23)c1 | TRUE
* Cn1cc(-c2cnn3c(N)c(Br)c([C@@H]4CCCNC4)nc23)cn1 | FALSE

In this assay, the call recorded for `CC#CC(=O)N1CCC[C@H]1c1nc(-c2ccc(C(=O)Nc3ccccn3)cc2)c2c(N)nccn12` was what?
FALSE

In this assay, the call recorded for `Cc1cn(-c2cc(NC(=O)c3ccc(C)c(Nc4nccc(-c5cnccn5)n4)c3)cc(C(F)(F)F)c2)cn1` was what?
FALSE

In this assay, the call recorded for `CN1CCN(CC(=O)Nc2ccc(-c3nc4ccccc4s3)cc2)CC1` was what?
FALSE

In this assay, the call recorded for COc1cc2c(c(OC)c1)C1c3ccccc3NC(=O)N1CC2 (configuration not stated) was what?
FALSE

In this assay, the call recorded for `Cc1cc(N2CCOCC2)nc(N(CCNc2ccnc3cc(Cl)ccc23)Cc2cccs2)n1` was what?
TRUE

In this assay, the call recorded for `CNC(=O)c1ccc(Nc2ncc(C(F)(F)F)c(NCc3nccnc3N(C)S(C)(=O)=O)n2)cc1` was what?
TRUE

In this assay, the call recorded for `COc1cccc(NC(=O)Nc2ccc(Nc3ncnc4sc5c(c34)CCN(C(=O)CCl)C5)cc2)c1` was what?
FALSE

In this assay, the call recorded for `CCc1cc2c(cc1N1CCC(N3CCOCC3)CC1)C(C)(C)c1[nH]c3cc(C#N)ccc3c1C2=O` was what?
TRUE

In this assay, the call recorded for `COc1cc(Nc2ncc3c(n2)-c2ccc(Cl)cc2C(c2c(F)cccc2OC)=NC3)ccc1C(=O)O` was what?
FALSE

In this assay, the call recorded for `CCc1nc2ccc(Cc3ccc(C(=O)NO)cc3)cc2c(=O)n1CCc1ccccc1` was what?
TRUE

In this assay, the call recorded for Cc1ccccc1N1C(c2ccccc2)=NNC12C=CC(=O)C=C2Cl (configuration not stated) was what?
FALSE

In this assay, the call recorded for `c1ccc2c(c1)CCN(NCCN1CCCC1)C2` was what?
FALSE

In this assay, the call recorded for `Cc1ccc(NC(=O)NC(=O)CSc2nc3ccccc3nc2C)cc1` was what?
FALSE
